# assay_system: Phosphatidylinositol 4,5-bisphosphate 3-kinase catalytic subunit delta isoform (Homo sapiens, UniProt O00329)
# Sequence (O00329 whole entry, canonical isoform): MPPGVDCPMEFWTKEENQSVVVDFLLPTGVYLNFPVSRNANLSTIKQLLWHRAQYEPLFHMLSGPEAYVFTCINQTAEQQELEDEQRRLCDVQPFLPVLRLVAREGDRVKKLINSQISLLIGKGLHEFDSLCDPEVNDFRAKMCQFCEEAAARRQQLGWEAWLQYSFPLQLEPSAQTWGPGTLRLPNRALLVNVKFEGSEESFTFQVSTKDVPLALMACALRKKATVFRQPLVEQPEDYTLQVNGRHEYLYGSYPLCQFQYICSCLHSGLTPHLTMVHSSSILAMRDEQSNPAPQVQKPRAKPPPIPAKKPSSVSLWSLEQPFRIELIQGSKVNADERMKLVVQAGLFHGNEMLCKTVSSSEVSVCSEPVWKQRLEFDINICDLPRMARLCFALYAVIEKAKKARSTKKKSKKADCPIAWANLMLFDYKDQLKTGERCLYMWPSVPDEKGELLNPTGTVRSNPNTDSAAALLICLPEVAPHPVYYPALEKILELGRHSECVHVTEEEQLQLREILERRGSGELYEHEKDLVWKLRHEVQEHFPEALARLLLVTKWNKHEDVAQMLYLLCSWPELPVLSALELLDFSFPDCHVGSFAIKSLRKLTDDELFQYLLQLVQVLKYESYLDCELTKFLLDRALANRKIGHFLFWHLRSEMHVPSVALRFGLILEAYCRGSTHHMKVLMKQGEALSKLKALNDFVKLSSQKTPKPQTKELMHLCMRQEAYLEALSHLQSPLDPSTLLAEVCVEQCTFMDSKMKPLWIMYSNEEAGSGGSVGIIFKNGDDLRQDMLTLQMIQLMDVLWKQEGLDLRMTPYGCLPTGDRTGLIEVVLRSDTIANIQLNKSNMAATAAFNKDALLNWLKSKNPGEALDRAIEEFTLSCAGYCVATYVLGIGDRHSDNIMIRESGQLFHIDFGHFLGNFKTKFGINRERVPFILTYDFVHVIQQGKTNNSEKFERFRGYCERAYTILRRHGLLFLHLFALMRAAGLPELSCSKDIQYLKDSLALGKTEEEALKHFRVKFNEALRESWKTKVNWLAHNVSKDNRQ
# experimental_details: Inhibition of PI3Kdelta (unknown origin) expressed in baculovirus-infected fall armyworm sf21 cells co-expressing p85 by kinase-glo luminescence assay
pIC50: −log10 of the molar value.
observation_type: pIC50

// worked examples, pIC50 included
CC(C)C[C@H](N)CC(=O)N1CCN(c2nc(N3CCOCC3)nc(-n3c(C(F)F)nc4ccccc43)n2)CC1    5.04
C[C@H](N)C(=O)N1CCC(c2nc(N3CCOCC3)nc(-n3c(C(F)F)nc4ccccc43)n2)CC1    5.96

1. NCCC1CCN(c2nc(N3CCOCC3)nc(-n3c(C(F)F)nc4ccccc43)n2)CC1
2. NCC(=O)N1CCC(c2nc(N3CCOCC3)nc(-n3c(C(F)F)nc4ccccc43)n2)CC1
3. O=C(C1CCNCC1)N1CCN(c2nc(N3CCOCC3)nc(-n3c(C(F)F)nc4ccccc43)n2)CC1
4. O=C([C@H]1CCCN1)N1CCN(c2nc(N3CCOCC3)nc(-n3c(C(F)F)nc4ccccc43)n2)CC1
5. N[C@@H](CC(=O)N1CCN(c2nc(N3CCOCC3)nc(-n3c(C(F)F)nc4ccccc43)n2)CC1)c1ccccc1
Please order the records by their reported pIC50, lowest number first. Return the labels ranked in the requested order, please.
5, 1, 3, 2, 4

====

# assay_system: Phosphatidylinositol 4,5-bisphosphate 3-kinase catalytic subunit beta isoform (Homo sapiens, UniProt P42338)
# Sequence (P42338 whole entry, canonical isoform): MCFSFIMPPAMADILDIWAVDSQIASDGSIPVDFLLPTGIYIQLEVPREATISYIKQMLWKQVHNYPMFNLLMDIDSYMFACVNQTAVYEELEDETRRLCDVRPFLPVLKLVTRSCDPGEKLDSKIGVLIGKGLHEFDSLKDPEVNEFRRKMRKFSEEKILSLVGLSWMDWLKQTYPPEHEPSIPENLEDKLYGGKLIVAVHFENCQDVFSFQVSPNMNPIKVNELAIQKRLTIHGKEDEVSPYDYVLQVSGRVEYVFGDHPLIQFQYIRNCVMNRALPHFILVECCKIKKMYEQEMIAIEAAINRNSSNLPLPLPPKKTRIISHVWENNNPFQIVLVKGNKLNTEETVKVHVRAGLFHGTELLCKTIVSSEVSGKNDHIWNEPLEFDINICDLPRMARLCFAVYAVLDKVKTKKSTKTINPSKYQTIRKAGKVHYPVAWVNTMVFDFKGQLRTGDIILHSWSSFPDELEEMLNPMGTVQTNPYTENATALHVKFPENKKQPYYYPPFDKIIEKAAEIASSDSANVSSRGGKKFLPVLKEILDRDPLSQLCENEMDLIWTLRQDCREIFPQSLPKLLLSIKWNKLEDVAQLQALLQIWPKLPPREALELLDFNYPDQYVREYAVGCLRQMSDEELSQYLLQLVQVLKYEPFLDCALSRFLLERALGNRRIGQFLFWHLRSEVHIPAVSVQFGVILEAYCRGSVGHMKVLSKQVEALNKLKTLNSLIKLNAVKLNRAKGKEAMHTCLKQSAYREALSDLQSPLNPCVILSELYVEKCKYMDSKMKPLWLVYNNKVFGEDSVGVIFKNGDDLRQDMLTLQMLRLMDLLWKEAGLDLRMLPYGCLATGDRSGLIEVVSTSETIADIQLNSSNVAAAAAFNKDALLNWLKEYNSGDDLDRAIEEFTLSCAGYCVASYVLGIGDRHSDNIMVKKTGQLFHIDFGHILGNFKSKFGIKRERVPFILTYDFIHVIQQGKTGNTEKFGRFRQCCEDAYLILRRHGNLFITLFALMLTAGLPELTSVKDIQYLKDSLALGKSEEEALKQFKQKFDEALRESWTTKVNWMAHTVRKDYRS
# experimental_details: Inhibition of PI3Kbeta (unknown origin) expressed in baculovirus-infected fall armyworm sf21 cells co-expressing p85 by kinase-glo luminescence assay
observation_type: IC50 (nM)

NC1CCN(c2nc(N3CCOCC3)nc(-n3c(C(F)F)nc4ccccc43)n2)CC1    955

I. NCC1CCN(c2nc(N3CCOCC3)nc(-n3c(C(F)F)nc4ccccc43)n2)CC1
II. O=C([C@H]1CCCN1)N1CCN(c2nc(N3CCOCC3)nc(-n3c(C(F)F)nc4ccccc43)n2)CC1
III. C[C@H](N)C(=O)N1CCC(c2nc(N3CCOCC3)nc(-n3c(C(F)F)nc4ccccc43)n2)CC1
IV. O=C(C1CCCN1)N1CCC(c2nc(N3CCOCC3)nc(-n3c(C(F)F)nc4ccccc43)n2)CC1 (single isomer, unassigned)
Write the entries in order, lowest recorded IC50 first. Respond with an ordered listing of the labels, as requested.
II, III, I, IV

====

# experimental_details: Intrinsic clearance in human liver microsomes at 1 uM after 60 mins in presence of NADPH by UPLC-MS analysis
# Format: ADME
# experimental_conditions: read-out: CLH
observation_type: microsomal CLint at 1 µM (µL/min/mg)
// units = µL/min/mg; emit number, no label

Entry N[C@@H](Cc1ccccc1)C(=O)N1CCN(c2nc(N3CCOCC3)nc(-n3c(C(F)F)nc4ccccc43)n2)CC1 ; microsomal CLint at 1 µM = 22

====

# experimental_details: Drug level in iv dosed rat serum after 60 mins by LC-MS analysis
# Assay type: ADME, organism-based
# experimental_conditions: read-out: Drug uptake
observation_type: concentration at 1 h (µM)
Field: numeric (µM). Do not append units.

Recorded result, Cc1cc(C(C)Nc2ccccc2)c2nc(N3CCOCC3)cc(=O)n2c1 (stereo unspecified) , concentration at 1 h: 0.2

====

# assay_system: albumin (Homo sapiens)
# Sequence (P02768 whole entry): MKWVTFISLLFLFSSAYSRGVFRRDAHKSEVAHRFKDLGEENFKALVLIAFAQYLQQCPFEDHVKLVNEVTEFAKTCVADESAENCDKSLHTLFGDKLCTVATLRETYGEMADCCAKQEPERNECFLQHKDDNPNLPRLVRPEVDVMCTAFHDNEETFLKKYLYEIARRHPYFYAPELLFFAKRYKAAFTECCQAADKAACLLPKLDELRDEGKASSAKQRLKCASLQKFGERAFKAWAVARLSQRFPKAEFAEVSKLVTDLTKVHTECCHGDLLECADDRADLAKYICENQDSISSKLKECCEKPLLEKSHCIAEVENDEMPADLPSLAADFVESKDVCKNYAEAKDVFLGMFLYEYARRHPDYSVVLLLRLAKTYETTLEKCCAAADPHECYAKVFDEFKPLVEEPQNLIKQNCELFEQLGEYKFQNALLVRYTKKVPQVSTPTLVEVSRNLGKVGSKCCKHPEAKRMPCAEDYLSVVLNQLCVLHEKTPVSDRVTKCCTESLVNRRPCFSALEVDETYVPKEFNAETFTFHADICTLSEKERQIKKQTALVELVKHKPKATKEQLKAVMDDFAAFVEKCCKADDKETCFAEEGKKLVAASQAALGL
# experimental_details: Protein binding to human serum albumin by HPLC analysis
# Type: ADME
# experimental_conditions: read-out: PB (converted)
observation_type: fraction unbound
// no unit string in output, number only

The measured fraction unbound associated with N[C@@H](Cc1ccccc1)C(=O)N1CCN(c2nc(N3CCOCC3)nc(-n3c(C(F)F)nc4ccccc43)n2)CC1 reads 0.03

====

# experimental_details: Plasma clearance in Sprague-Dawley rat at 3 mg/kg, iv by LC-MS analysis
# Type: ADME, organism-based
observation_type: clearance (mL/min/kg)
Respond numerically; units are mL/min/kg and should not be typed.

Lab note: N[C@@H](Cc1ccccc1)C(=O)N1CCN(c2nc(N3CCOCC3)nc(-n3c(C(F)F)nc4ccccc43)n2)CC1 gave clearance of 67

====

# experimental_details: Apparent half life in Sprague-Dawley rat at 3 mg/kg, iv by LC-MS analysis
# Assay type: ADME, organism-based
# experimental_conditions: in vivo, read-out: t1/2(app)
observation_type: half-life

Entry N[C@@H](Cc1ccccc1)C(=O)N1CCN(c2nc(N3CCOCC3)nc(-n3c(C(F)F)nc4ccccc43)n2)CC1 — recorded half-life = 2.8 to 3 h

====

# assay_system: Phosphatidylinositol 4,5-bisphosphate 3-kinase catalytic subunit beta isoform (Homo sapiens, UniProt P42338)
# experimental_details: Inhibition of PI3Kbeta (unknown origin) expressed in baculovirus-infected fall armyworm sf21 cells co-expressing p85 by kinase-glo luminescence assay
observation_type: IC50 (nM)

FC(F)c1nc2ccccc2n1-c1nc(NC2CCNCC2)nc(N2CCOCC2)n1    2110
C[C@@H](N)C(=O)N1CCC(c2nc(N3CCOCC3)nc(-n3c(C(F)F)nc4ccccc43)n2)CC1    3200
CC(=O)NC1CCN(c2nc(N3CCOCC3)nc(-n3c(C(F)F)nc4ccccc43)n2)CC1    521
NCC(=O)N1CCC(Nc2nc(N3CCOCC3)nc(-n3c(C(F)F)nc4ccccc43)n2)CC1    1060
O=C(C1CCNCC1)N1CCN(c2nc(N3CCOCC3)nc(-n3c(C(F)F)nc4ccccc43)n2)CC1    3210

1. N[C@@H](CC(=O)N1CCN(c2nc(N3CCOCC3)nc(-n3c(C(F)F)nc4ccccc43)n2)CC1)c1ccccc1
2. NCCC1CCN(c2nc(N3CCOCC3)nc(-n3c(C(F)F)nc4ccccc43)n2)CC1
Lab note: check whether 1 or 2 shows the higher recorded IC50. // respond with label for picked entry
1
(1: 1800 nM, 2: 190 nM)

====

# experimental_details: Blood clearance in rat by LC-MS analysis
# Type: ADME, tissue-based
# experimental_conditions: whole blood
observation_type: clearance (mL/min/kg)
Write the number in mL/min/kg without appending the unit.

Notebook: N[C@@H](Cc1ccccc1)C(=O)N1CCN(c2nc(N3CCOCC3)nc(-n3c(C(F)F)nc4ccccc43)n2)CC1 , clearance read as 39
